zone of inhibition at 1000 µg/mL: recorded values
Test system: Staphylococcus aureus
Assay: Antibacterial activity against Staphylococcus aureus at 1 mg/ml after 24 hr by […]
Type: functional
Settings: read-out: DIZ
Where a name gives a salt, the structure may show the parent alone.
Report as a plain number; the unit mm is understood.

Please review the entries below; each comes with its answer.
C[C@H]1COc2c(N3CCN(C)CC3)c(F)cc3c(=O)c(C(=O)O)cn1c23 [LEVOFLOXACIN HYDROCHLORIDE]: 3.3
CN1CCN(c2c(F)cc3c(=O)c(C(=O)O)cn(CC(=O)O)c3c2F)CC1: 0.7
CC(C)CC(C(=O)O)n1cc(C(=O)O)c(=O)c2cc(F)c(N3CCN(C)CC3)c(F)c21 (stereo unspecified): 0.6

Query: Using the record for CCC(C)C(C(=O)O)n1cc(C(=O)O)c(=O)c2cc(F)c(N3CCN(C)CC3)c(F)c21 (stereo unspecified) , report its zone of inhibition at 1000 µg/mL.
Reply: 0.6

Query: Using the record for CN1CCN(c2c(F)cc3c(=O)c(C(=O)O)cn(C(Cc4ccccc4)C(=O)O)c3c2F)CC1 (stereo unspecified) , report its zone of inhibition at 1000 µg/mL.
Reply: 0.8

Query: Using the record for CN1CCN(c2c(F)cc3c(=O)c(C(=O)O)cn(C(C(=O)O)c4ccccc4)c3c2F)CC1 (stereo unspecified) , report its zone of inhibition at 1000 µg/mL.
Reply: 0.6
